Parameter: Effect. Scope: all listed entries.
# assayedTarget: Estrogen receptor (Mus musculus) (UniProt O08537+P19785)
# Sequence (O08537 whole entry, looked up): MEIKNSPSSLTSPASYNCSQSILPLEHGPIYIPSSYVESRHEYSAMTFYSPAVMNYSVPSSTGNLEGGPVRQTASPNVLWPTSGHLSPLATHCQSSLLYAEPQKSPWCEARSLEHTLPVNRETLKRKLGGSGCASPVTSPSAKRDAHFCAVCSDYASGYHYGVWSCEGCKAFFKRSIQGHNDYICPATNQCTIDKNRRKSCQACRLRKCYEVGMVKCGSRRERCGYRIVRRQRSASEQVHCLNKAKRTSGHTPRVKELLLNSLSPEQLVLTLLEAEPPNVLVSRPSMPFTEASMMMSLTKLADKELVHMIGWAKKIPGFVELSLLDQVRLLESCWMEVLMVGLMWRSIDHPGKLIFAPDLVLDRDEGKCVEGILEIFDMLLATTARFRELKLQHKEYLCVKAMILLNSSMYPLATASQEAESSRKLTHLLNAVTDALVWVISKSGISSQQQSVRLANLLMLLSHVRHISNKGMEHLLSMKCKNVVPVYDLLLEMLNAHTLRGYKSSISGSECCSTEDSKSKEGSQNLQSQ
# Sequence (P19785 whole entry, looked up): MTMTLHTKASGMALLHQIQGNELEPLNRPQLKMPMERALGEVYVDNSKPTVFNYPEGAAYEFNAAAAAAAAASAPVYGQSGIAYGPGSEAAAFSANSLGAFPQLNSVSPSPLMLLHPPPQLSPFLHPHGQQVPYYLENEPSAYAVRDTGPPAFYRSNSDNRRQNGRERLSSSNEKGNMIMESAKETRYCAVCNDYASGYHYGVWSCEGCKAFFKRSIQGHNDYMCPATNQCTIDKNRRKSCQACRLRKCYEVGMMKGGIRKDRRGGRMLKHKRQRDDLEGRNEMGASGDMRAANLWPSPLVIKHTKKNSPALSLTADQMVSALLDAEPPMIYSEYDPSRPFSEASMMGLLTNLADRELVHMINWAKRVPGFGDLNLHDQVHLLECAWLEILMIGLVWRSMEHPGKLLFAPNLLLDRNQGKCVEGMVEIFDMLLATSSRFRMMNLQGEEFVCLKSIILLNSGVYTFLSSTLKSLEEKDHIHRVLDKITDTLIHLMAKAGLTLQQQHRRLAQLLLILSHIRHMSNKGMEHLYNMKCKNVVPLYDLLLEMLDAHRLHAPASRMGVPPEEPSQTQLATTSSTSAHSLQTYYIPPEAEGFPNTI
# testDetails: Uterotrophic effect in mice as uterus dry weight(mg) compared to body weight(g) at 500 ug/day dose
# Assay type: functional, tissue-based

sampleSmiles: CC(C)(c1ccc(F)c(O)c1)C(C)(C)c1ccc(F)c(O)c1
Effect: 21.4
--
sampleSmiles: CCC(CC)(c1cccc(O)c1)C(CC)(CC)c1cccc(O)c1
Effect: 52.4
--
sampleSmiles: CC(C)(c1cc(O)cc(O)c1)C(C)(C)c1cc(O)cc(O)c1
Effect: 14.3
--
sampleSmiles: CC(C)(c1ccc(O)c(O)c1)C(C)(C)c1ccc(O)c(O)c1
Effect: 12.5
